For each entry below, report its IC50 value.
system tested: SbnA (Staphylococcus aureus)
Construct: synthetic codon-optimised gene in pSH21p::TrxA, His-Trx tag with TEV site, tag cleaved and removed; expressed in E. coli BL21 ArcticExpress (DE3)
method summary: PNP-coupled continuous assay (MESG, […] nm)
Type: biochemical
Give bare numbers, in µM.

O=C(O)CC(O)(CC(=O)O)C(=O)O [citrate]; 800
O=C(O)/C=C(\C(=O)O)c1ccccc1; 37
O=C(O)CCC(=O)C(=O)O [α-ketoglutarate]; 2600

Field: next compound
## Input Quick check: IC50 of O=C(O)CC(C(=O)O)c1ccccc1 (racemic) ?
## Output 366

* * *

system tested: SbnA (Staphylococcus aureus, UniProt A6QDA0)
Construct: synthetic codon-optimised gene in pSH21p::TrxA, His-Trx tag with TEV site, tag cleaved and removed; expressed in E. coli BL21 ArcticExpress (DE3)
Sequence (A6QDA0 whole entry): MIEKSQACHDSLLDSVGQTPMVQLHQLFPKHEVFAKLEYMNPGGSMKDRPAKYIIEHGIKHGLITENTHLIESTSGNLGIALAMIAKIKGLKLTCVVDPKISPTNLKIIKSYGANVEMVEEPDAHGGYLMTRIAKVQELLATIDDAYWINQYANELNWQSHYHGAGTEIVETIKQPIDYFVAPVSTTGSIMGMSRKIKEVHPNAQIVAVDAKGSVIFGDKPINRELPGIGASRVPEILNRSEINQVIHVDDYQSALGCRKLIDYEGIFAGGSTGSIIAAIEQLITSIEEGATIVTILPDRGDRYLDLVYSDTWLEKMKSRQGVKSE
method summary: PNP-coupled continuous assay (MESG, […] nm), global fit
Assay type: biochemical
measured metric: pKi
Answers are plain numbers, as −log10 of the molar value.

Would you please look over these solved cases?
O=C(O)CC(C(=O)O)c1ccccc1 (racemic); 3.91
O=C(O)/C=C(\C(=O)O)c1ccccc1; 4.80

// switching to the query molecule
## Input For the record O=C(O)CC(O)(CC(=O)O)C(=O)O [citrate] , what value of pKi is listed for SbnA (Staphylococcus aureus, UniProt A6QDA0)?
## Output 3.05
